Assay: The drug is tested on WLS-069 corresponding to human gut metagenome with ENA study accession number: PRJEB37062 and ENA sample accession number: ERS12561748 for biotransformation under anaerobic condition. The drug concentrations were measured over 9 timepoints collected between 0 and 24 hours of incubation by liquid-chromatography-coupled mass spectrometry (LC–MS); note: call rule not given here
Conditions: 2 µM
reported_property: Bacterial Biotransformation

1. COc1ccc([C@@H]2Sc3ccccc3N(CCN(C)C)C(=O)[C@@H]2OC(C)=O)cc1 [DILTIAZEM] :: Compound metabolized
2. CN[C@H]1CC[C@@H](c2ccc(Cl)c(Cl)c2)c2ccccc21 [SERTRALINE] :: Compound metabolized
3. CCN(C(C)=O)c1cccc(-c2ccnc3c(C#N)cnn23)c1 [ZALEPLON] :: Compound metabolized

These measurements were taken from ChEMBL document CHEMBL5724914.
